PROTOCOL_TEXT: inhibition of 3D7 malaria parasite growth – strain 3D7 (AID 2306);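 further: 0% = DMSO wells and 100% = chloroquine plus artemisinin control wells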
MEASUREMENT_CONDITIONS: P. falciparum 3D7 erythrocytic growth, LDH absorbance, 72 h; at 2 µM; hits give high values
# maps each entry to its growth inhibition
Please respond with the number in % and leave the unit unwritten.

The examples below pair each entry with its known result.
[[record]]
compound = "CCN(c1ccccc1)S(=O)(=O)c1ccc(OC)c(NC(=O)c2cccc(C(F)(F)F)c2)c1"
outcome_measure = "growth inhibition"
result = 90

[[record]]
compound = "COc1ccc(CNc2cc(C)nc3sc4c(c23)CCC2(C4)OCCO2)cc1"
outcome_measure = "growth inhibition"
result = 96

[[record]]
compound = "CCCC(C)c1cnc2nc(N)nc(N)c2c1C (centres undefined)"
outcome_measure = "growth inhibition"
result = 95

[[record]]
compound = "COC(=O)CCn1c(C2CCN(CC3CCC(NC(=O)/C=C/c4ccc(Cl)c(Cl)c4)CC3)CC2)nc2ccccc21 (centres undefined)"
outcome_measure = "growth inhibition"
result = 94

[[record]]
compound = "CN1CCN(CC2(Nc3nccc(NCc4ccc(Cl)cc4Cl)n3)CCCCC2)CC1"
outcome_measure = "growth inhibition"
result = 98

[[record]]
compound = "c1cc(CNCCN2CCNCC2)cc(-c2ccc(-c3nc4ccccc4[nH]3)cc2)c1"
outcome_measure = "growth inhibition"
result = 98


Respond only with growth inhibition recorded for O=C(C=Cc1ccc(Cl)c(Cl)c1)NCCCCCN1CCCC(CCCNS(=O)(=O)c2ccc(Br)cc2)C1 (centres undefined)
88

Return growth inhibition (reported value) for this compound: Cc1cccc2[nH]c(-c3cccc(-c4ccc(CNCc5cccc(N)c5)cc4)c3)nc12
101

Read the entry Cc1ccc(-c2cc(C(=O)Nc3ccc(S(=O)(=O)N(C)Cc4ccccc4)cc3)[nH]n2)c(O)c1 and write its reported growth inhibition.
99

###

MEASUREMENT_TARGET: L-lactate dehydrogenase (Plasmodium falciparum (isolate CDC / Honduras))
PROTOCOL_TEXT: PfLDH activity inhibition – cell lysate, 3D7 strain, counter-screen for P. falciparum growth inhibition project (AID 2304);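 further: 0% = vehicle and 100% = reference inhibitor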
MEASUREMENT_CONDITIONS: P. falciparum 3D7 crude extract, LDH APAD/NBT absorbance; at 2 µM; hits give high values
As shown below, each of these molecules has a reported inhibition value.
Use % as the unit, but write only the number.

Consider the following illustrative entries.
[[record]]
chem_smiles = "Cc1nc(NCCc2cnc[nH]2)cc(NCc2ccccc2)n1"
outcome_measure = "inhibition"
result = -2

[[record]]
chem_smiles = "Nc1nc(N)c2c(ccc3c2ccn3Cc2ccccn2)n1"
outcome_measure = "inhibition"
result = -1


Consider the additional molecule presented here.
Complete the entry with inhibition for Cc1ccc2nc(-c3ccc(C=CC(=O)NC4CCN(Cc5ccccc5)CC4)cc3)[nH]c2c1
-1

###

PROTOCOL_TEXT: inhibition of 3D7 malaria parasite growth – strain 3D7 (AID 2306);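 further: 0% = DMSO wells and 100% = chloroquine plus artemisinin control wells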
MEASUREMENT_CONDITIONS: P. falciparum 3D7 erythrocytic growth, LDH absorbance, 72 h; at 2 µM; hits give high values
In this section, each of the compounds is paired with its reported growth inhibition.
Please respond with the number in % and leave the unit unwritten.

Recorded growth inhibition, per entry:
[[record]]
chem_smiles = "Cc1cc([N+](=O)[O-])ccc1N1CCN(CCCCNC(=O)c2ccc(NC(=O)c3ccc(Cl)cc3)cc2)CC1"
outcome_measure = "growth inhibition"
value_unit = "%"
result = 92

[[record]]
chem_smiles = "CC(C)Cn1c2ccccc2c2nc3nc(N)nc(N)c3nc21"
outcome_measure = "growth inhibition"
value_unit = "%"
result = 93

[[record]]
chem_smiles = "CC(C)(C)OC(=O)Nc1cccc(-c2csc(N=C(N)N)n2)c1"
outcome_measure = "growth inhibition"
value_unit = "%"
result = 97

[[record]]
chem_smiles = "C[C@@]12C[C@@H](Nc3nc(NCCc4ccc(O)cc4)nc(N4CCNCC4)n3)C[C@@H](C1)c1cccc(Cl)c1O2"
outcome_measure = "growth inhibition"
value_unit = "%"
result = 101

[[record]]
chem_smiles = "CCNc1cc(CC)nc(Nc2ccc(C)cc2)n1"
outcome_measure = "growth inhibition"
value_unit = "%"
result = 100


Identify the reported growth inhibition for the following entry. COc1cccc2cc(C(=O)N[C@@H](CC(C)C)C(=O)Nc3cc(F)ccc3Br)oc12
87

Respond only with growth inhibition recorded for COc1cc(Br)c(NC(=O)Nc2ccc(C(F)(F)F)c(O[C@@H]3CCN(C)C3)c2)cc1OC
97

###

MEASUREMENT_TARGET: L-lactate dehydrogenase (Plasmodium falciparum (isolate CDC / Honduras))
PROTOCOL_TEXT: PfLDH activity inhibition – cell lysate, 3D7 strain, counter-screen for P. falciparum growth inhibition project (AID 2304);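 further: 0% = vehicle and 100% = reference inhibitor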
MEASUREMENT_CONDITIONS: P. falciparum 3D7 crude extract, LDH APAD/NBT absorbance; at 2 µM; hits give high values
OUTCOME_MEASURE: inhibition (%)
# value in %; strip the unit string

[[record]]
molecule = "CCCNCc1ccc(-c2ccc(CN(CCOC)C(=O)c3ccc([N+](=O)[O-])c(C)c3)cc2)nc1"
result = 1

[[record]]
molecule = "COc1ccc2nccc([C@@H](O)CN3CCC(NCc4cc5ccccc5[nH]4)CC3)c2c1"
result = 4

[[record]]
molecule = "CCCCc1ccc(Cc2cnc3nc(N)nc(N)c3c2C)cc1"
result = 5

[[record]]
molecule = "COc1ccc(-c2nnc(Sc3ccc(C#N)c([N+](=O)[O-])c3)n2CC(C)C)cc1"
result = 4

[[record]]
molecule = "O=C(Nc1ccc(-c2nc3ccccc3[nH]2)cc1)C1CCN(Cc2ccc(F)cc2)CC1"
result = 1

[[record]]
molecule = "CC(C)[C@H](NC(=O)c1ccc(O)c(-c2ccc(Cl)c(Cl)c2)c1)C(=O)NCCN1CCCC1"
result = 4

[[record]]
molecule = "COc1cccc(NC(=O)Nc2cc(C)nc3ccccc23)c1"
result = -1

[[record]]
molecule = "CC(C)COc1ccc(Cl)cc1Cc1nc(-c2nc3ccc(CN4CCCC4)cc3[nH]2)co1"
result = -1

[[record]]
molecule = "Cc1ccc(CNC(=O)[C@H](CCCN)Nc2cc(C)nc(NCC3CCCCC3)n2)cc1"
result = 0

[[record]]
molecule = "O=C1NC(c2ccc(N3CCCCCC3)cc2)Nc2ccccc21 (configuration not stated)"
result = 0


Quick one: give measured inhibition for COc1cc(C(=O)NC2CCN(Cc3ccccc3)CC2)ccc1-c1nc2cc(Cl)c(Cl)cc2[nH]1
4

Report measured inhibition; entry is c1ccc2c(c1)CN(CC1CCOCC1)CC1(CCN(Cc3c[nH]c4cnccc34)CC1)O2
-3

Note down inhibition recorded for CN(CCCc1c[nH]c2ccccc12)CCC1CCC(NC(=O)/C=C/c2ccc(Cl)c(Cl)c2)CC1 (configuration not stated)
-3

Recall and state the measured inhibition for Cc1nc(N2CCC(C)CC2)c2c3c(sc2n1)CCCC3 .
1

Recall and state the measured inhibition for CC(C)NCc1ccc(-c2cccc(-c3nc4ccccc4[nH]3)c2)cc1 .
0

Give a short answer stating reported inhibition for CC(=O)Oc1cc(C(=O)Nc2ccc(Cl)cc2)cc2ccccc12 .
-3

Query inhibition for CN(C)c1ccc(C(c2ccc(N(C)C)cc2)c2cc([N+](=O)[O-])ccc2Cl)cc1
7

###

Listed next: entries and their corresponding growth inhibition.
PROTOCOL_TEXT: inhibition of 3D7 malaria parasite growth – strain 3D7 (AID 2306);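 further: 0% = DMSO wells and 100% = chloroquine plus artemisinin control wells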
MEASUREMENT_CONDITIONS: P. falciparum 3D7 erythrocytic growth, LDH absorbance, 72 h; at 2 µM; hits give high values
Respond with the bare value in %.

Example entries and their recorded answers appear below.
[[record]]
compound = "COc1ccc2nccc([C@@H](O)CN3CCC(NCc4ccc5c(c4)N(C)C(=O)CO5)CC3)c2c1"
result = 101

[[record]]
compound = "Cc1nc(-c2nc(NCc3ccc4c(c3)OCO4)ncc2-c2ccsc2)sc1C"
result = 97

[[record]]
compound = "CC(C)(C)c1ccc(CNCCOc2ccc(Nc3nnc(-c4ccc(-c5ncc[nH]5)cc4)o3)c3ccccc23)cc1"
result = 100

[[record]]
compound = "CCc1c[nH]c2c(N3CCCS3(=O)=O)cc(C(=O)N[C@@H](Cc3ccccc3)[C@H](O)CNC3CCCCC3)cc12"
result = 99

[[record]]
compound = "O=C(/C=C/c1ccc(Cl)c(Cl)c1)NCCCCCN1CCC(NC(=O)c2ccc3ccccc3c2)CC1"
result = 87

[[record]]
compound = "CN1CCN(c2cc(NC(=O)c3ccc(-c4ccc(C#N)cc4)cc3)ccc2Cl)CC1"
result = 101


State its growth inhibition: CCOC(=O)C(Oc1ccc2ccccc2c1)C(=O)OCC
98

Give the measured growth inhibition for CCSc1ccccc1CON1C(N)=NC(N)=NC1(C)C
96

Give the reported growth inhibition for this compound. COc1ccc2nccc(N(C)CC3(O)CCN(CC(O)c4ccc5c(c4)NC(=O)CS5)CC3)c2n1 (stereo not given)
101

###

PROTOCOL_TEXT: antimalarial activity against Dd2 strain (AID 2302);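 further: 0% = DMSO untreated growth and 100% = chloroquine plus artemisinin killed control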
MEASUREMENT_CONDITIONS: P. falciparum Dd2 in RBCs, LDH growth readout, 72 h; at 2 µM; hits give high values
OUTCOME_MEASURE: growth inhibition (%)
Field format: number, assumed %, no unit text.

The following compounds have reported results that may help.
[[record]]
compound = "CCCCc1ccc(Cc2cnc3nc(N)nc(N)c3c2C)cc1"
value_unit = "%"
result = 5

[[record]]
compound = "Nc1cccc(CNCc2cccc(-c3ccc(-c4nc5ccc(C(F)(F)F)cc5[nH]4)cc3)c2)c1"
value_unit = "%"
result = 98

[[record]]
compound = "Cc1nc(N)nc(N)c1-c1ccc2ccccc2c1"
value_unit = "%"
result = 2

[[record]]
compound = "O=C(NC1CCCCN(Cc2ccccc2O)C1)c1cccc(C(F)(F)F)c1 (stereo unspecified)"
value_unit = "%"
result = 64

[[record]]
compound = "CCCN1CCc2c(sc3nc(SCC(=O)Nc4ccc(C)cc4)n(-c4ccc(C)cc4)c(=O)c23)C1"
value_unit = "%"
result = 71


# evaluate next
Specify growth inhibition for Cc1cccc2[nH]c(-c3ccc(-c4ccc(CN5CCCC5CN)cc4)cc3)nc12 (stereo unspecified) and stop.
65
